test system: panel of cancer cell lines; assay: Cell viability (CellTiter-Glo) dose-response across cancer cell line panel; assay type: cell-based, human; details: Homo sapiens, CAL-120, CAL-120 cells;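 further: after 72 h compound incubation with CellTiter-Glo ATP readout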
pEC50: −log10 of the molar value.

- molecule: "COCc1ccccc1NCc1ccc([C@@H]2[C@H](O)CCCc3cncn32)c(-c2ccccc2Cl)c1 [CSN5i-2e]"
  tested-on: "panel of cancer cell lines"
  pEC50: 5.04

====

tested on: panel of cancer cell lines; test: Cell viability (CellTiter-Glo) dose-response across cancer cell line panel; assay type: cell-based, human; details: Homo sapiens, NCI-H2030, NCI-H2030 cells;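 further: after 72 h compound incubation with CellTiter-Glo ATP readout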
pEC50: −log10 of the molar value.
endpoint-label: pEC50

- item-smiles: "COCc1ccccc1NCc1ccc([C@@H]2[C@H](O)CCCc3cncn32)c(-c2ccccc2Cl)c1"
  endpoint-label: "pEC50"
  recorded-measurement: 4.52

====

system: panel of cancer cell lines; experiment: Cell viability (CellTiter-Glo) dose-response across cancer cell line panel; type: cell-based, human; conditions: Homo sapiens, MM370;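 further: after 72 h compound incubation with CellTiter-Glo ATP readout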

- item-smiles: "COCc1ccccc1NCc1ccc([C@H]2[C@@H](O)CCCc3cncn32)c(-c2ccccc2Cl)c1"
  EC50 / µM: 6.22
- item-smiles: "NS(=O)(=O)OC[C@@H]1C[C@@H](n2ccc3c(N[C@H]4CCc5ccccc54)ncnc32)C[C@@H]1O"
  EC50 / µM: 0.273

====

tested on: panel of cancer cell lines; test: Cell viability (CellTiter-Glo) dose-response across cancer cell line panel; assay type: cell-based, human; settings: Homo sapiens, Ishikawa, Ishikawa (Heraklio) 02 ER-;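 further: after 72 h compound incubation with CellTiter-Glo ATP readout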
pEC50: −log10 of the molar value.

- item-smiles: "CC(C)C[C@H](NC(=O)[C@H](Cc1ccccc1)NC(=O)c1cnccn1)B(O)O"
  pEC50: 7.79

====

system: panel of cancer cell lines; test: Cell viability (CellTiter-Glo) dose-response across cancer cell line panel; assay type: cell-based, human; conditions: Homo sapiens, COLO 704, COLO-704 cells;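 further: after 72 h compound incubation with CellTiter-Glo ATP readout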

- compound: "COCc1ccccc1NCc1ccc([C@@H]2[C@H](O)CCCc3cncn32)c(-c2ccccc2Cl)c1 [CSN5i-2e]"
  EC50, µM: 12.6

====

The reader will find reported pEC50 values listed item by item below.
tested on: panel of cancer cell lines; assay: Cell viability (CellTiter-Glo) dose-response across cancer cell line panel; assay type: cell-based, human; settings: Homo sapiens, SW-403, SW403;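 further: after 72 h compound incubation with CellTiter-Glo ATP readout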
pEC50: −log10 of the molar value.
endpoint-label: pEC50

- compound: "NS(=O)(=O)OC[C@@H]1C[C@@H](n2ccc3c(N[C@H]4CCc5ccccc54)ncnc32)C[C@@H]1O [MLN4924]"
  result-comparator: "="
  recorded-measurement: 6.10
- compound: "COCc1ccccc1NCc1ccc([C@H]2[C@@H](O)CCCc3cncn32)c(-c2ccccc2Cl)c1 [CSN5i-2]"
  result-comparator: "<"
  recorded-measurement: 4.52

====

system: panel of cancer cell lines; test: Cell viability (CellTiter-Glo) dose-response across cancer cell line panel; assay type: cell-based, human; conditions: Homo sapiens, GB-1, GB-1;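 further: after 72 h compound incubation with CellTiter-Glo ATP readout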

- item-smiles: "NS(=O)(=O)OC[C@@H]1C[C@@H](n2ccc3c(N[C@H]4CCc5ccccc54)ncnc32)C[C@@H]1O"
  unit-of-measure: "µM"
  EC50: 0.479
- item-smiles: "COCc1ccccc1NCc1ccc([C@H]2[C@@H](O)CCCc3cncn32)c(-c2ccccc2Cl)c1"
  unit-of-measure: "µM"
  EC50: 3.9

====

system: panel of cancer cell lines; assay: Cell viability (CellTiter-Glo) dose-response across cancer cell line panel; assay type: cell-based, human; details: Homo sapiens, MM127;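 further: after 72 h compound incubation with CellTiter-Glo ATP readout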
The reader will find reported EC50 values listed item by item below.

- compound: "COCc1ccccc1NCc1ccc([C@H]2[C@@H](O)CCCc3cncn32)c(-c2ccccc2Cl)c1 [CSN5i-2]"
  unit-of-measure: "nM"
  EC50: 508
- compound: "NS(=O)(=O)OC[C@@H]1C[C@@H](n2ccc3c(N[C@H]4CCc5ccccc54)ncnc32)C[C@@H]1O [MLN4924]"
  unit-of-measure: "nM"
  EC50: 325

====

tested on: panel of cancer cell lines; assay: Cell viability (CellTiter-Glo) dose-response across cancer cell line panel; format: cell-based, human; conditions: Homo sapiens, NCI-H1975, NCI-H1975;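 further: after 72 h compound incubation with CellTiter-Glo ATP readout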
endpoint-label: EC50 (nM)

- item-smiles: "COCc1ccccc1NCc1ccc([C@H]2[C@@H](O)CCCc3cncn32)c(-c2ccccc2Cl)c1"
  tested-on: "panel of cancer cell lines"
  recorded-measurement: 2830
- item-smiles: "NS(=O)(=O)OC[C@@H]1C[C@@H](n2ccc3c(N[C@H]4CCc5ccccc54)ncnc32)C[C@@H]1O"
  tested-on: "panel of cancer cell lines"
  recorded-measurement: 2710

====

test system: panel of cancer cell lines; assay: Cell viability (CellTiter-Glo) dose-response across cancer cell line panel; format: cell-based, human; settings: Homo sapiens, KASUMI-2;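 further: after 72 h compound incubation with CellTiter-Glo ATP readout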

- item-smiles: "CC(C)C[C@H](NC(=O)[C@H](Cc1ccccc1)NC(=O)c1cnccn1)B(O)O"
  EC50, nM: 3.8

====

tested on: panel of cancer cell lines; assay: Cell viability (CellTiter-Glo) dose-response across cancer cell line panel; assay type: cell-based, human; conditions: Homo sapiens, cell line LC-1/sq-SF;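 further: after 72 h compound incubation with CellTiter-Glo ATP readout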
pEC50: −log10 of the molar value.

- item-smiles: "CC(C)C[C@H](NC(=O)[C@H](Cc1ccccc1)NC(=O)c1cnccn1)B(O)O"
  pEC50: 7.73

====

test system: panel of cancer cell lines; assay: Cell viability (CellTiter-Glo) dose-response across cancer cell line panel; type: cell-based, human; settings: Homo sapiens, CML-T1, CML-T1;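 further: after 72 h compound incubation with CellTiter-Glo ATP readout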

- molecule: "CC(C)C[C@H](NC(=O)[C@H](Cc1ccccc1)NC(=O)c1cnccn1)B(O)O [Bortezomib]"
  EC50 [nM]: 3.65

====

molecular target: human MMP9 (Homo sapiens)
Sequence (P14780 20-707): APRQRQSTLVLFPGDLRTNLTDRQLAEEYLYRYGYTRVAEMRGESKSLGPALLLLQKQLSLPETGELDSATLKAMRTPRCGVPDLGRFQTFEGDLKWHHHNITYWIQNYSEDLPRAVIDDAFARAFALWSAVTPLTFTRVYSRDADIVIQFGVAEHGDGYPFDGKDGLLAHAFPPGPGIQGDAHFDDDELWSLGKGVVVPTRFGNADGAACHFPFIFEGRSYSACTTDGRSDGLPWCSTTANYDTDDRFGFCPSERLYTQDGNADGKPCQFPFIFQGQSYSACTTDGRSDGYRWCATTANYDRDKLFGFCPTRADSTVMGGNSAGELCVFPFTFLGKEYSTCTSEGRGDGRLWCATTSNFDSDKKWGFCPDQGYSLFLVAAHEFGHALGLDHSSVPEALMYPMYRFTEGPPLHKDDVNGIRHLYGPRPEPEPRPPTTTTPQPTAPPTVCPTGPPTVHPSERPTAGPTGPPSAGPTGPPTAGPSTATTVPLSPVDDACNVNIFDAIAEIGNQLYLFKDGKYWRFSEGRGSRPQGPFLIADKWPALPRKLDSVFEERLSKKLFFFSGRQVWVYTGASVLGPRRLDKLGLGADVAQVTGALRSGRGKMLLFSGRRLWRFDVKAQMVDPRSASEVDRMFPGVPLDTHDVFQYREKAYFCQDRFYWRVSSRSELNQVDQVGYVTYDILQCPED

- item-smiles: "CC(C)n1nc(C(F)F)cc1C(=O)Nc1ccc([C@H]2[C@@H](O)CCCc3cncn32)c(-c2ccccc2)c1"
  unit-of-measure: "µM"
  IC50: 7.4
- item-smiles: "COCc1ccccc1NCc1ccc([C@@H]2[C@H](O)CCCc3cncn32)c(-c2ccccc2Cl)c1"
  unit-of-measure: "µM"
  IC50: 3.2

====

test system: panel of cancer cell lines; assay: Cell viability (CellTiter-Glo) dose-response across cancer cell line panel; assay type: cell-based, human; conditions: Homo sapiens, MDA-MB-436, MDA-MB-436;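 further: after 72 h compound incubation with CellTiter-Glo ATP readout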

- compound: "COCc1ccccc1NCc1ccc([C@H]2[C@@H](O)CCCc3cncn32)c(-c2ccccc2Cl)c1 [CSN5i-2]"
  EC50: "0.387 µM"
- compound: "NS(=O)(=O)OC[C@@H]1C[C@@H](n2ccc3c(N[C@H]4CCc5ccccc54)ncnc32)C[C@@H]1O [MLN4924]"
  EC50: "1.43 µM"
- compound: "CC(C)C[C@H](NC(=O)[C@H](Cc1ccccc1)NC(=O)c1cnccn1)B(O)O [Bortezomib]"
  EC50: "0.0126 µM"

====

test system: panel of cancer cell lines; assay: Cell viability (CellTiter-Glo) dose-response across cancer cell line panel; type: cell-based, human; settings: Homo sapiens, VMRC-RCW cells;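 further: after 72 h compound incubation with CellTiter-Glo ATP readout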
pEC50: −log10 of the molar value.

- item-smiles: "COCc1ccccc1NCc1ccc([C@@H]2[C@H](O)CCCc3cncn32)c(-c2ccccc2Cl)c1"
  tested-on: "panel of cancer cell lines"
  pEC50: 4.92

====

The reader will find reported EC50 values listed item by item below.
system: panel of cancer cell lines; test: Cell viability (CellTiter-Glo) dose-response across cancer cell line panel; assay type: cell-based, human; conditions: Homo sapiens, TE-1, TE-1;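 further: after 72 h compound incubation with CellTiter-Glo ATP readout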

- item-smiles: "NS(=O)(=O)OC[C@@H]1C[C@@H](n2ccc3c(N[C@H]4CCc5ccccc54)ncnc32)C[C@@H]1O"
  EC50: "1.7 µM"
- item-smiles: "COCc1ccccc1NCc1ccc([C@H]2[C@@H](O)CCCc3cncn32)c(-c2ccccc2Cl)c1"
  EC50: "0.751 µM"

====

tested on: panel of cancer cell lines; assay: Cell viability (CellTiter-Glo) dose-response across cancer cell line panel; format: cell-based, human; details: Homo sapiens, MHH-NB-11;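 further: after 72 h compound incubation with CellTiter-Glo ATP readout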
endpoint-label: EC50 (nM)

- item-smiles: "CC(C)C[C@H](NC(=O)[C@H](Cc1ccccc1)NC(=O)c1cnccn1)B(O)O"
  endpoint-label: "EC50"
  unit-of-measure: "nM"
  recorded-measurement: 10.4

====

test system: panel of cancer cell lines; experiment: Cell viability (CellTiter-Glo) dose-response across cancer cell line panel; format: cell-based, human; settings: Homo sapiens, PK-45H;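 further: after 72 h compound incubation with CellTiter-Glo ATP readout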
pEC50: −log10 of the molar value.

- item-smiles: "COCc1ccccc1NCc1ccc([C@H]2[C@@H](O)CCCc3cncn32)c(-c2ccccc2Cl)c1"
  pEC50: 5.73
- item-smiles: "NS(=O)(=O)OC[C@@H]1C[C@@H](n2ccc3c(N[C@H]4CCc5ccccc54)ncnc32)C[C@@H]1O"
  pEC50: 5.79

====

test system: panel of cancer cell lines; test: Cell viability (CellTiter-Glo) dose-response across cancer cell line panel; assay type: cell-based, human; details: Homo sapiens, NUGC-3, cell line NUGC-3;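 further: after 72 h compound incubation with CellTiter-Glo ATP readout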

- item-smiles: "CC(C)C[C@H](NC(=O)[C@H](Cc1ccccc1)NC(=O)c1cnccn1)B(O)O"
  EC50: "0.0119 µM"
